conditions: in ethyl acetate, 308.15 K
observed-property: solubility (mole fraction)

## Task Query: solubility (mole fraction); subject: O=C1NC(=O)C2C3C=CC(C3)C12 (stereo unspecified)
## Result 0.0195

----------
settings: in 1,4-dioxane, 293.15 K
observed-property: solubility (mole fraction)
Please give the numeric answer without any surrounding text.

## Task Query: solubility (mole fraction); subject: O=C1NC(=O)C2C3C=CC(C3)C12 (stereo unspecified)
## Result 0.0402

----------
settings: in ethyl acetate, 323.15 K
observed-property: solubility (mole fraction)
Please give the numeric answer without any surrounding text.

## Task Query: solubility (mole fraction); subject: O=C1NC(=O)C2C3C=CC(C3)C12 (stereo unspecified)
## Result 0.029
